Test system: 876862-298-R-J1-PDC complex spheroids, viability % test/control;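 note: spheroids exposed to drugs for 7 days before readout; 100% = DMSO vehicle control wells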
Assay: Anticancer human tumor 876862-298-R-J1-PDC patient-derived endometrial carcinoma cell line growth inhibition [CLK]
Conditions: second compound 0.316 µM; first compound 0.0316 µM; active compounds read low
metric: viability, T/C (%)

INSERT INTO assay_data (compound, metric, measured) VALUES
  ('C=CC(=O)N1CCN(c2nc(=O)n(-c3c(C)ccnc3C(C)C)c3nc(-c4c(O)cccc4F)c(F)cc23)C(C)C1 (stereo not drawn) + CN1CCN(c2cc(C(=O)Nc3cc4cc(-c5cnn(C)c5)ccc4cn3)ccn2)CC1', 'viability, T/C', 5.51),
  ('C#Cc1c(F)ccc2cc(O)cc(-c3ncc4c(N5CC6CCC(C5)N6)nc(OCC56CCCN5CC(F)C6)nc4c3F)c12 (stereo not drawn) + CNC(=O)c1ccc(Nc2nc(OC3CCCC3)c3c(-c4ccc5nc(C)oc5c4)c[nH]c3n2)c(OC)c1', 'viability, T/C', 38),
  ('CC(CO)NC(=O)c1cc(-c2ccc(Cl)cc2)nn(-c2cnn(C)c2)c1=O (stereo not drawn) + CN1CCN(c2cc(C(=O)Nc3cc4cc(-c5cnn(C)c5)ccc4cn3)ccn2)CC1', 'viability, T/C', 5.52);
